Let's look at some compounds and their measured IC90.
Test system: Plasmodium berghei
Assay: Luciferase/luciferin-expressing antifolate-resistant parasites were used to infect a culture of HepG2 cells that were pre-incubated with compounds. Infected hepatocytes emit light due to the luciferase reaction. Assay results are presented as the percent inhibition of light emission compared to control. […]
Format: functional
Settings: sporozoite, read-out: LUCIFERASE INFECTION ASSAY - IC90

Here is how some compounds turned out for IC90.
CC1CCC(C(C)C)C(N(Cc2ccccc2)C(=O)c2cccc3ccccc23)C1 (stereo not drawn): > 8.26 µM
COC(=O)C(C(=O)CSc1nnc(-c2ccc(C(C)(C)C)cc2)n1C)=C1Nc2ccccc2N1: > 10 µM

Req: Return value of IC90 for input Cc1nc(C2(NC(=O)COc3ccc4ccccc4c3)CCCCC2)no1 , no commentary.
Resp: > 10 µM

----------
Test system: Plasmodium berghei
Assay: Luciferase/luciferin-expressing antifolate-resistant parasites were used to infect a culture of HepG2 cells that were pre-incubated with compounds. Infected hepatocytes emit light due to the luciferase reaction. Assay results are presented as the percent inhibition of light emission compared to control. […]
Type: functional
Details: sporozoite, read-out: LUCIFERASE INFECTION ASSAY - IC50
Let's look at some compounds and their measured IC50.

Req: Return value of IC50 for input Cc1c(C(=O)O)sc(S(=O)(=O)N2CCN(C(=O)C(C)(C)C)CC2)c1C(=O)O , no commentary.
Resp: > 10 µM

----------
System: Plasmodium berghei
Experiment: Luciferase/luciferin-expressing antifolate-resistant parasites were used to infect a culture of HepG2 cells that were pre-incubated with compounds. Infected hepatocytes emit light due to the luciferase reaction. Assay results are presented as the percent inhibition of light emission compared to control. […]
Type: functional
Details: sporozoite, read-out: LUCIFERASE INFECTION ASSAY - IC90
Let's look at some compounds and their measured IC90.

Req: Return value of IC90 for input c1ccc(Nc2nc(-c3ccc4c(c3)CCC4)cs2)nc1 , no commentary.
Resp: > 10 µM

Req: Return value of IC90 for input CC(C)Oc1ccc(-c2nc3c4c5c(sc4ncn3n2)CN(C)CC5)cc1 , no commentary.
Resp: > 8.7 µM

Req: Return value of IC90 for input CC(C)c1ccc(Nc2nccc3nc(-c4cccc(C(F)(F)F)c4)[nH]c23)cc1 , no commentary.
Resp: > 10 µM

Req: Return value of IC90 for input Cc1cccc(C2CC(=O)Nc3[nH]c(-c4ccccc4)nc(=O)c32)c1 (stereo unspecified) , no commentary.
Resp: > 9.96 µM

Req: Return value of IC90 for input Cn1c(-c2ccccc2)c(C(Nc2ccccn2)c2ccccc2O)c2ccccc21 (stereo unspecified) , no commentary.
Resp: > 10 µM

Req: Return value of IC90 for input C=CCn1c(O)nnc1Sc1ncc([N+](=O)[O-])s1 , no commentary.
Resp: > 11.6 µM

Req: Return value of IC90 for input CC1=CC(C)(C)N(C(=O)c2ccc(F)cc2)c2cc3c(cc21)OCO3 , no commentary.
Resp: > 9.72 µM

----------
Test system: Plasmodium berghei
Test: Luciferase/luciferin-expressing antifolate-resistant parasites were used to infect a culture of HepG2 cells that were pre-incubated with compounds. Infected hepatocytes emit light due to the luciferase reaction. Assay results are presented as the percent inhibition of light emission compared to control. […]
Format: functional
Details: sporozoite, read-out: LUCIFERASE INFECTION ASSAY - IC50
pIC50: −log10 of the molar value.
Value type: pIC50

Here is how some compounds turned out for pIC50.
O=[N+]([O-])c1ccc(CSc2nc3cc(Cl)c(F)cc3[nH]2)cc1: < 5.10
Brc1ccc(/C=N/c2ccccc2N2CCOCC2)cc1: < 5.00

Please look at the following compound next.
Req: Return value of pIC50 for input N#CC(Nc1ccc(C(F)(F)F)cc1)c1ccccc1 (stereo not drawn) , no commentary.
Resp: < 4.92

----------
Test system: Plasmodium berghei
Experiment: Luciferase/luciferin-expressing antifolate-resistant parasites were used to infect a culture of HepG2 cells that were pre-incubated with compounds. Infected hepatocytes emit light due to the luciferase reaction. Assay results are presented as the percent inhibition of light emission compared to control. […]
Format: functional
Conditions: sporozoite, read-out: LUCIFERASE INFECTION ASSAY - IC50
Value type: IC50

Here is how some compounds turned out for IC50.
CCn1nc(C)c(CN2CCC3(CC2)C(=O)N(Cc2ccccc2)C(=O)N3CCc2ccccc2)c1C: 2.92 µM
Oc1cc(OCCN2CCCCC2)ccc1-c1n[nH]cc1-c1ccccc1: > 9.08 µM
Cc1c(-n2nnnc2SCC(C)C)c(=O)n(-c2ccccc2)n1C: > 10 µM
CCC(C)c1ccc(S(=O)(=O)N2CCN(C(C)C(=O)N3c4ccccc4CC3C)CC2)cc1 (centres undefined): > 10 µM
O=C(Nc1ccc(Oc2ccccc2)cc1)c1csc(C(O)c2ccccc2)n1 (centres undefined): 1.63 µM
CSc1sc(C(=O)Sc2ccccc2)cc1S(=O)(=O)C(C)C: > 8.86 µM
CCOC(=O)c1c[nH]c2ccc(OC(F)(F)F)cc2c1=O: > 11 µM
O=C(Nc1ccc(F)cc1F)c1nnsc1S(=O)(=O)c1ccc(Cl)cc1: > 7.94 µM
COc1ccc(-c2ccc(-c3nc4c(c(=O)[nH]c(=O)n4CC(C)C)n3CC(C)C)o2)c([N+](=O)[O-])c1: > 10 µM
FC(F)(F)Oc1cccc(-c2nc3ccnc(NCCc4ccncc4)c3[nH]2)c1: 3.37 µM

Req: Fetch value of IC50 on Plasmodium berghei for N#Cc1ccccc1OC(=O)Nc1ccc(OC(F)(F)F)cc1 .
Resp: 3.31 µM

Req: Fetch value of IC50 on Plasmodium berghei for CSc1ccc(Cl)c(C(=O)OCC(=O)N2CCN(C(=O)c3ccco3)CC2)c1 .
Resp: > 10 µM

Req: Fetch value of IC50 on Plasmodium berghei for Cn1c(CSc2cccs2)nnc1SCC(=O)Nc1ccc(F)cc1F .
Resp: > 8 µM

Req: Fetch value of IC50 on Plasmodium berghei for COc1ccc(C(=O)Nc2ccc(Oc3cc(C(F)(F)F)cc(C(F)(F)F)c3)cc2)cc1 .
Resp: 0.486 µM

Req: Fetch value of IC50 on Plasmodium berghei for COc1cccc2sc(NC(=O)C3CCN(C(C)=O)CC3)nc12 .
Resp: > 10 µM

----------
Let's look at some molecules and their measured IC90.
Tested on: Plasmodium berghei
Experiment: Luciferase/luciferin-expressing antifolate-resistant parasites were used to infect a culture of HepG2 cells that were pre-incubated with compounds. Infected hepatocytes emit light due to the luciferase reaction. Assay results are presented as the percent inhibition of light emission compared to control. […]
Format: functional
Settings: sporozoite, read-out: LUCIFERASE INFECTION ASSAY - IC90

Here is how some molecules turned out for IC90.
COc1ccc(Br)cc1/C=C/c1ccc2c([N+](=O)[O-])cccc2n1: > 10 µM
O=C(c1cnc(Nc2cccc(C(F)(F)F)c2)[nH]1)c1ccccc1F: > 9.45 µM
CC(C)n1cc(-c2nc(C(=O)NNC(=O)c3ccccc3Cl)cs2)c(=O)n(Cc2ccccc2)c1=O: > 6.3 µM

Req: Fetch value of IC90 on Plasmodium berghei for Cc1nn(-c2ccccc2)c2sc(C(=O)NNc3nc(CN4CCOCC4)nc4scc(-c5ccccc5)c34)cc12 .
Resp: > 10 µM

Req: Fetch value of IC90 on Plasmodium berghei for Cc1cc(N2CCOCC2)ccc1NC(=O)CC1C=CCC1 (configuration not stated) .
Resp: > 10 µM

Req: Fetch value of IC90 on Plasmodium berghei for CCn1nc(C(=O)N2CCN(c3ccccc3)CC2)c2c1CCN(Cc1cc(C)c(OC)cc1C)C2 .
Resp: > 6.77 µM

Req: Fetch value of IC90 on Plasmodium berghei for CCn1c(-c2ccccc2)c(C(=O)COC(=O)c2c(NC(C)=O)sc3c2CCCC3)c2ccccc21 .
Resp: > 10 µM

Req: Fetch value of IC90 on Plasmodium berghei for C=S(NC(=O)c1ccc(Cl)cc1)c1sc(C(=O)OCC)c2c1C(=O)CCC2 (configuration not stated) .
Resp: > 7.78 µM

----------
Let's look at some compounds and their measured IC90.
System: Plasmodium berghei
Assay: Luciferase/luciferin-expressing antifolate-resistant parasites were used to infect a culture of HepG2 cells that were pre-incubated with compounds. Infected hepatocytes emit light due to the luciferase reaction. Assay results are presented as the percent inhibition of light emission compared to control. […]
Format: functional
Conditions: sporozoite, read-out: LUCIFERASE INFECTION ASSAY - IC90

Here is how some compounds turned out for IC90.
COC(=O)c1cccc(OC(=O)/C=C/c2ccc(-c3ccccc3)s2)c1: > 10 µM
CSc1nc2ccccc2c(=O)n1-c1c(C)cccc1C: > 11.1 µM
CCCn1c(NC(=O)c2cccnc2SC)nc2ccccc21: > 10 µM
CC1=NN(c2ccc(C)cc2)C(=O)C1=C1SCCS1: > 11.4 µM

Req: Return value of IC90 for input COc1cc2c(cc1NC(=O)C1CCCN(S(=O)(=O)c3ccc(F)cc3)C1)oc1ccccc12 (stereo not given) , no commentary.
Resp: > 10 µM

Req: Return value of IC90 for input CCc1nn2c(NCc3cccnc3)cc(C)nc2c1-c1ccccc1 , no commentary.
Resp: > 9.61 µM

Req: Return value of IC90 for input N#C/C(=C\N1CCN(Cc2ccccc2)CC1)S(=O)(=O)c1ccccn1 , no commentary.
Resp: > 8.96 µM

Req: Return value of IC90 for input CC(C)c1cccc(N2CC(C(=O)N3CCC(C(N)=O)CC3)CC2=O)c1 (stereo not given) , no commentary.
Resp: > 10 µM
